Data provenance: ChEMBL document CHEMBL1201862

- System: SW-620
- PROTOCOL: NCI tumour cell line growth inhibition, 48 h
The source made the active and inactive calls. Rule as the data show it: active = GI50 up to about 1.1 µM and inactive = higher.
Listing: GI50 of selected molecules
ENDPOINT_NAME: GI50

| MOLECULE | ENDPOINT_NAME | ENDPOINT_RESULT |
| --- | --- | --- |
| COc1cc(C2c3cc4c(cc3OC(NNS(=O)(=O)c3ccc(C)cc3)C2C)OCO4)cc(OC)c1O (stereo not given) | GI50 | 24.3 µM (inactive) |
| NP(=O)(Oc1c2occc2cc2ccc(=O)oc12)N(CCCl)CCCl (stereo not given) | GI50 | > 100 µM (inactive) |
| CCCNc1[nH]c(C(=O)c2ccccc2)c(N)c1C(=S)Nc1ccccc1 | GI50 | > 100 µM (inactive) |
| COC(OC)C1OC(CO)C(n2cc(F)c(=O)[nH]c2=O)C1O (stereo not given) | GI50 | > 100 µM (inactive) |
| OCC1OC(n2cnc3c2N=CNC[C@H]3O)C(Cl)C1O (stereo not given in full) | GI50 | > 100 µM (inactive) |

###

- Test system: SK-MEL-2
- PROTOCOL: NCI tumour cell line growth inhibition, 48 h
The source made the active and inactive calls. No stated cut-off is given here; in the data, active = GI50 up to about 1.1 µM and inactive = higher. Positions of bridges follow the written chain, without caps; N, C: chain ends. Residues, ends and D or L forms follow the SMILES beside them. Peptide text beside a SMILES is read from it. * marks the point of attachment. Cbz = O=C(OCc1ccccc1)*; CH2Cl = ClC*
Outcomes: label 1 = active, label 0 = inactive

| MOLECULE | CLASS_NAME |
| --- | --- |
| COc1cc2c(cc1OC)-c1c(oc3cc(OC4OC(CO)C(O)C(O)C4O)c(OC)cc3c1=O)C(O)O2 (centres undefined) | label 0 |
| CCOc1nc2sc3c(c2c(=O)n1CCSSCCn1c(OCC)nc2sc4c(c2c1=O)CCCC4)CCCC3 | label 0 |
| CC12CCC(=O)N1c1ccc([N+](=O)[O-])cc1N2 (centres undefined) | label 0 |
| CC(C)CC(NC(=O)OCc1ccccc1)C(=O)NC(Cc1ccccc1)C(=O)CCl (stereo not drawn) (Cbz-Leu-Phe-CH2Cl; configuration not given here) | label 0 |
| Cc1ccc(C)c(COCCOCn2ccc(N)nc2=O)c1 | label 0 |
| CC(=O)OCC1OC(n2c(-c3ccc(C)cc3)cc(-c3ccco3)c(C#N)c2=S)C(OC(C)=O)C(OC(C)=O)C1OC(C)=O (centres undefined) | label 0 |
| CN(CCNC(=S)c1cn(C)c2c1ccc1ccccc12)CCNC(=S)c1cn(C)c2c1ccc1ccccc12 | label 0 |
| CC(C1CCCC1=O)C1CCCC1=O (centres undefined) | label 0 |
| Cc1nn(C(=O)c2ccccc2O)c2c1C(c1ccc(O)cc1O)SC(=N)N2 (centres undefined) | label 0 |
| COc1cc(-c2coc3c(OC)c(OC4OC(CO)C(O)C(O)C4O)c(OC)cc3c2=O)cc(OC)c1C (centres undefined) | label 0 |
| COc1ccc(Nc2nc3cc(C(F)(F)F)ccc3nc2C(=O)O)cc1OC | label 0 |
| CC[C@H]1CN(C)[C@H]2Cc3c([nH]c4ccccc34)C(=O)C[C@H]1C2C(=O)OC (some centres undefined) | label 0 |
| CC(C)Oc1c(-c2ccc(F)cc2)c(O)c2c3c1oc(=O)n3C=CC2C (centres undefined) | label 0 |
| Cc1ccc(S(N)(C(=O)Nc2cccc3ccccc23)[N+](=O)[O-])cc1 (centres undefined) | label 0 |
| Cc1ncc(C/N=C/c2ccc(Cl)cc2)c(N)n1 | label 0 |
| Cc1ccc(S(=O)(=O)Oc2cc(S(=O)(=O)O)cc3cc(S(=O)(=O)O)cc(N)c23)cc1 | label 0 |
| OCC1OC(n2cnc3c2N=CNC[C@H]3O)C(Cl)C1O (some centres undefined) | label 0 |
| Nc1nc(=O)c2c([nH]1)NCC(CCNc1ccc(C(=O)O)cc1)N2 (centres undefined) | label 0 |
| C/C(=N\N=C(/S)N1CC2CCC(CC2)C1)c1cccc[n+]1[O-] | label 0 |
| Cc1ccc(-c2c(C#N)c(-c3ccc(N(C)C)cc3)c(C#N)c(=O)n2NS(=O)(=O)c2ccccc2)cc1 | label 0 |
| Cc1ccc(/N=C2\C(=N/c3ccc(C)cc3)N(c3ccc(C)cc3)C(=S)N2C(=O)c2ccccc2)cc1 | label 0 |
| CCc1ccccc1NC(=O)C1=C(C)NC(C)=C(C(=O)Nc2ccccc2CC)C1c1ccc2c(c1)OCO2 | label 0 |
| c1ccc(SCCc2ccncc2)cc1 | label 0 |
| CSc1nc(=O)cnn1C | label 0 |
| CC(=O)C(C)(C)CCC(C)(C)C(C)=O | label 0 |
| CC(/C=N/N(C)C1=NCCCN1)=N/N(C)C1=NCCCN1 | label 0 |
| CC(=O)OC1(C#N)CC2OC1C1NC21 (centres undefined) | label 0 |
| O=C1N/C(=N/N=C/c2ccccc2)N/C1=C\c1cccs1 | label 0 |
| CCC(C)C1NC(=O)C(CC(C)C)NC(=O)C(C(C)C)NC(=O)C2CSSCC(NC1=O)C(=O)N2 (centres undefined) (cyclo(CCVLI); disulfide 1-2; configuration not given here) | label 1 |
| O=C(NC1CCC[C@H]1OC(=O)c1ccccc1)c1ccccc1 (some centres undefined) | label 0 |
| COC(=O)NC(=O)c1cn(CCCOC(=O)CCCCCCCCC(=O)OCCCn2cc(C(=O)NC(=O)OC)c(=O)[nH]c2=O)c(=O)[nH]c1=O | label 0 |
| O=S(=O)(O)c1ccc2c(/N=N/c3ccc(/N=N/c4ccccc4)cc3)c(O)c(S(=O)(=O)O)cc2c1 | label 0 |
| COc1ccc2oc(=N)c(C(=O)NCc3ccccc3)cc2c1 | label 0 |
| CCOP(=O)(OCC)/C(C#N)=C/c1cnc(C)[nH]1 | label 0 |

###

- Test system: SNB-75
- PROTOCOL: NCI tumour cell line growth inhibition, 48 h
Active and inactive are the calls of the source. Rule as the data show it: active = GI50 up to about 1.1 µM and inactive = higher.

| MOLECULE | SUBJECT_OF_TEST | GI50 |
| --- | --- | --- |
| CN(C)Cc1cc(C(=O)/C=C/c2ccc(Cl)c(Cl)c2)cc(CN(C)C)c1O | SNB-75 | 2.07 µM (inactive) |
| O=C(O)c1cc2sc(C(=O)O)cc2s1 | SNB-75 | > 100 µM (inactive) |
| CC1CCP(=O)(c2ccccc2)CC1 (stereo unspecified) | SNB-75 | > 100 µM (inactive) |
| Nc1c(C(=O)c2ccc(Cl)c(Cl)c2)[nH]c(NCc2ccccc2)c1C(=S)Nc1ccccc1 | SNB-75 | 10 µM (inactive) |
| N#Cc1ccc(NC(=O)C(CC(=O)OCc2ccccc2)NC(=O)OCc2ccccc2)cc1 (stereo unspecified) | SNB-75 | > 10 µM (inactive) |
| O=C1Nc2ccccc2/C1=N/NC(=O)c1ccccc1O | SNB-75 | 19.8 µM (inactive) |
| C=C(C)[C@@H]1CCC2=C[C@H](C/C(C)=C\C3=CC(C)=C(O3)[C@H]1O)OC2=O | SNB-75 | > 100 µM (inactive) |
| c1ccc(/N=C2\SC3=NCCN3\C2=N/c2ccccc2)cc1 | SNB-75 | 18 µM (inactive) |
| Cc1ccc(C2NC(=O)c3ccccc3N2)c(C)c1 (stereo unspecified) | SNB-75 | 1.92 µM (inactive) |
| Cc1ccc(/N=C2\C(=N/c3ccc(C)cc3)N(c3ccc(C)cc3)C(=S)N2C(=O)c2ccccc2)cc1 | SNB-75 | 17.5 µM (inactive) |
| N=C(N)NCCN1CC2CCC(CC2)C1 | SNB-75 | 19.7 µM (inactive) |

###

- System: KM-20L2
- PROTOCOL: NCI tumour cell line growth inhibition, 48 h
The source made the active and inactive calls. No stated cut-off is given here; in the data, active = GI50 up to about 1.1 µM and inactive = higher.
ENDPOINT_NAME: GI50

| COMPOUND | SUBJECT_OF_TEST | ENDPOINT_RESULT |
| --- | --- | --- |
| CC(=O)NC(CCCCNCc1ccccc1)C(=O)NCc1ccccc1 (stereo unspecified) | KM-20L2 | > 100 µM (inactive) |
| Cc1ccc(S(=O)(=O)NC2CCCCO2)cc1 (stereo unspecified) | KM-20L2 | > 100 µM (inactive) |
| COc1cc(O)c2c(c1)C(=O)C=C(Cl)C2=O | KM-20L2 | > 100 µM (inactive) |
| [O-][n+]1c2cc(CN3CCOCC3)c(CN3CCOCC3)cc2[n+]([O-])c2c(O)cccc21 | KM-20L2 | 5.93 µM (inactive) |
| CCc1nc2cc(/N=N/c3c(O)ccc4ccccc34)ccc2[nH]1 | KM-20L2 | 19.6 µM (inactive) |
| COc1ccc2c(C(=O)O)cc3ccccc3c2c1OC | KM-20L2 | 22.8 µM (inactive) |

###

- System: K562
- PROTOCOL: NCI tumour cell line growth inhibition, 48 h
Activity calls are given as the source filed them. No stated cut-off is given here; in the data, active = GI50 up to about 1.1 µM and inactive = higher.
Outcomes: active, inactive

| MOLECULE | CLASS_NAME |
| --- | --- |
| Cc1cc2cc3cc(C)c(N)cc3nc2cc1N [ACRIDINE YELLOW] | active |
| CNC(=O)CCCNC(=O)CCCCC(=O)N(C)C | inactive |
| CN/N=C(\C)CC(=O)Nc1cccc(Cl)c1C | inactive |
| CC(=O)OC1(C#N)CC2OC1C1NC21 (centres undefined) | inactive |
| COC(=O)C(=O)CC(=O)CCn1ncc(Cl)c(Cl)c1=O | inactive |
| CC1=NN(c2ccccc2)C(=O)C1/N=N/c1ccc([As](=O)(O)O)c(O)c1 (centres undefined) | inactive |
| COc1ccc(-c2nc3ncccn3c2-c2ccc([S+](C)[O-])cc2)cc1 (centres undefined) | inactive |
| O=C(O)CCC(=O)c1ccc[nH]1 | inactive |
| COC[C@@H](/N=C/N1CCc2cc(OC)c(OC)cc2[C@@H]1C)C(C)(C)C | inactive |
| Oc1c([Si](c2ccccc2)(c2ccccc2)c2ccccc2)cc2ccccc2c1-c1c(O)c([Si](c2ccccc2)(c2ccccc2)c2ccccc2)cc2ccccc12 | inactive |
| O=C1Nc2ccccc2/C1=N/NC(=O)c1ccccc1O | inactive |
| Cc1nc2c(n1CCC(C)C)C(=O)c1ccccc1C2=O | inactive |
| O=C(/C=C/c1cccc([N+](=O)[O-])c1)c1cccnc1 | inactive |
| CCCCN(CCCC)CCCn1cnc2ncccc2c1=O | inactive |
| c1ccc(SCCc2ccncc2)cc1 | inactive |
| CC1(C)CCCCCCCCCC(C)(CCCO)C1=O (centres undefined) | inactive |
| C=Cc1ccc(C)[n+](C[Si](C)(C)O[Si](C)(C)C[n+]2cc(C=C)ccc2C)c1 | inactive |
| Nc1nc2ccc(Sc3ccc4nc(N)[nH]c(=O)c4c3)cc2c(=O)[nH]1 | inactive |
| Nc1n[nH]c2nc3ccccc3nc12 [QUINOXALINE1] | inactive |
| C(=N\N=C1NCCN1)/c1ccc2ccccc2c1 | inactive |
| CC(C)(Cc1ccccc1)NC1=NCCO1 | inactive |
| Fc1cc(-c2cc(-c3ccccc3)n[nH]2)c(Cl)cc1Cl | active |
| C/C(CCN(C)C)=N/O | active |
| CCCCCCCCCCCCCCCCCCNC(=O)OCC(CNS(=O)(=O)CCC[n+]1cccc2ccccc21)COC (centres undefined) | inactive |
